Hey, just so you know, these numbers are from patent US7820673B2.

Target: human FXa (Homo sapiens, UniProt P00742)
Sequence (P00742 235-488 limits assumed): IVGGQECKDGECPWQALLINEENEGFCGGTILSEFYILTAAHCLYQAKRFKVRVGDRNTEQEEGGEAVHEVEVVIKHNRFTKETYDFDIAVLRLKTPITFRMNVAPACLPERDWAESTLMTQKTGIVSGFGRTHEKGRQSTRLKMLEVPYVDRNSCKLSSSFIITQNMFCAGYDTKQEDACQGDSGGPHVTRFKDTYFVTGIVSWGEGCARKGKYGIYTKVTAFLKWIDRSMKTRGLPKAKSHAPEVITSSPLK
Sequence (P00742 41-179 partner limits assumed): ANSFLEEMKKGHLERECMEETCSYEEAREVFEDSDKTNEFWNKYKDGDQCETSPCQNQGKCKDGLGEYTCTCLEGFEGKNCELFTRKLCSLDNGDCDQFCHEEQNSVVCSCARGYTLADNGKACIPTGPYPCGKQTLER
Experiment: Human activated blood coagulation factor X (FXa) inhibitory action
Details: concentration inhibiting 50% of the FXa action; substrate S-2765, 37° C., absorbance at 405 nm
Experimental: (1) Human Activated Blood Coagulation Factor X (FXa) Inhibitory Action Method of experiment: 225 μl of a 0.05 M Tris hydrochloride buffer (pH 8.3) containing 0.145 M sodium chloride and 2 mM calcium chloride, 5 μl of a sample (the test compound is dissolved in dimethylsulfoxide), and 10 μl of human FXa (0.3 unit/ml) were added to a 96-well microplate to react at 37° C. for about 10 minutes, and then 10 μl of a substrate (3 mM, S-2765) was added thereto to react at 37° C. for about 10 minutes. […]
ASSAY_READOUT: IC50 (nM)
One number for each entry, in nM.

Answered cases to consult:
Cc1ncc2n1C(=O)N(N1CCN(C(=O)[C@H](NC(=O)Nc3ccc(Cl)cc3)C(C)(C)C)CC1)C2 | 18
CSC(C)(C)[C@@H](NC(=O)Nc1ccc(Cl)cc1)C(=O)N1CCN(N2Cc3cnc(C)n3C2=O)CC1 | 10
COC(C)(C)C(NC(=O)Nc1ccc(Cl)cc1)C(=O)N1CCN(N2Cc3cnc(C)n3C2=O)CC1 (stereo not shown) | 50

**Q:** Reported IC50 for CCC(O)(CC)C(NC(=O)Nc1ccc(Cl)cc1)C(=O)N1CCN(N2Cc3cnc(C)n3C2=O)CC1 (stereo not shown) : what is it?
**A:** 26
